ASSAY PROCEDURE: Rat pharmacokinetic study, first study
Format: in vivo, rats (Sprague Dawley, male)
DETAILS: male, Sprague-Dawley, rat, plasma, po, 10 mg/kg, First Study, rat p.o. 10 mg/kg (60 mg/m^2)
ASSAY READOUT: Cmax (ng/mL)

smiles_entry=O=C(Nc1ccncc1)C(=O)c1cn(Cc2ccc(Cl)cc2)c2ccccc12 experimental_result=18
